Assay: in vivo
Conditions: male, athymic nude, mouse, in vivo, iv, 5.5 MBq, total radioactivity, Blood uptake
Procedure: (a) PET scans and image analysis were performed using a micro-PET R4 rodent model scanner (Siemens Medical Solutions) as reported by Li et al., J. Nucl. Med. (2007) 48: 1162-1171 and Wu et al., J Nucl. […] The average radioactivity concentration (accumulation) within a tumor or an organ was obtained from mean pixel values within the multiple ROI volume, which were converted to counts/mL/min using a conversion factor. […]
value.type: tissue uptake at 0.5 h (%ID/g)
The figure you give is taken to be in %ID/g; do not add the unit.

The recorded tissue uptake at 0.5 h for CSCC[C@H](NC(=O)[C@H](CC(C)C)NC(=O)[C@H](Cc1c[nH]cn1)NC(=O)CNC(=O)[C@@H](NC(=O)[C@H](C)NC(=O)[C@H](Cc1c[nH]c2ccccc12)NC(=O)[C@H](CCC(N)=O)NC(=O)CCCCCNC(=O)CC[C@H](NC(=O)CN1CCN(CC(=O)O)CCN(CC(=O)O)CCN(CC(=O)O)CC1)C(=O)NCCCC[C@@H]1NC(=O)[C@@H](Cc2ccc(O)cc2)NC(=O)[C@H](CC(=O)O)NC(=O)CNC(=O)[C@H](CCCNC(=N)N)NC1=O)C(C)C)C(N)=O [^64Cu-DOTA-RGD-BBN, metal not drawn] is 1.15
